Experiment: yeast display, Sf9 membrane polyspecificity reagent, FACS + sequencing; frameworks hold sequencing errors
ASSAY_METRIC: polyreactivity (PSR sort gate)

# example entries with known answers
[
  {
    "SEQUENCE_STRING": "QVQLVESGGGLVQAGGSLRLSCAASGSILSVNAMGWYRQAPGKERELVAAINWSGGSTYYADSVKGRFTISRDNAKNTVYLQMNSLKPEDTAVYYCAARWRYSYVGDFDYWGQGTQVTVSS",
    "ASSAY_METRIC": "polyreactivity (PSR sort gate)",
    "REPORTED": "high polyreactivity"
  },
  {
    "SEQUENCE_STRING": "QVQLVESGGGLVQAGGSLRLSCAASGRIFPAYAMGWYRQAPGKERELVASIRRGGITYADSVKGRFTISRDNAKNTVYLQMNSLKPEDTAVYYCARPQWRDWYGYWGQGTQVTVSS",
    "ASSAY_METRIC": "polyreactivity (PSR sort gate)",
    "REPORTED": "low polyreactivity"
  },
  {
    "SEQUENCE_STRING": "QVHLVESGGGLVQAGGSLRLSCAASGSIIIRNAMGWYRQAPGKERELVATITRSGSTYYADSVKGRFTISRDNAKNTVYLQMNSLKPEDTAVYYFAADWPNLVEYYYWGQGTQVTVSS",
    "ASSAY_METRIC": "polyreactivity (PSR sort gate)",
    "REPORTED": "high polyreactivity"
  },
  {
    "SEQUENCE_STRING": "QVQLVESGGGLVQAGGSLRLSCAASGFTFEKNAMGWYGQAPGKERELVAAISRGGSTYADSVKGRFTISRDNAKTTVDLQMNSLKPEDTAVYYCAADTVYIFSSAINGEFGYWGQGTQVTVSS",
    "ASSAY_METRIC": "polyreactivity (PSR sort gate)",
    "REPORTED": "low polyreactivity"
  },
  {
    "SEQUENCE_STRING": "QVQLVESGGGLVQAAGSLRLSCAASGYTLAGNAMGWYRQSPGIERELVAAIDWNGGSTTYADSVKGRFTISRDNAKNTVYLQMNSLKPEDSAVYYCNVDLGVNGDYWGQGWQVTVSS",
    "ASSAY_METRIC": "polyreactivity (PSR sort gate)",
    "REPORTED": "low polyreactivity"
  },
  {
    "SEQUENCE_STRING": "QVQLVESGGGLVQAGGSLRLSCAASGFIIPGYAMGWYRQAPGKEREFVAAISRSGGSTYYADSVKGRFTISRDNAKNTVYLQMNSLKPEDSAVYYCATRARGYTGYDYWGQGTQVTVSS",
    "ASSAY_METRIC": "polyreactivity (PSR sort gate)",
    "REPORTED": "high polyreactivity"
  },
  {
    "SEQUENCE_STRING": "QVQLVESGGGLVQAGGSLRLSCAASGSTVHYMGWYRQAPGKERELVAGISWSGGSTYYADSVKGRFTISRDNAKNTVYLQMNSLKPEDTAVYYCAADIKIRLYTTGDYWGQGSQVTVSS",
    "ASSAY_METRIC": "polyreactivity (PSR sort gate)",
    "REPORTED": "low polyreactivity"
  },
  {
    "SEQUENCE_STRING": "QVQLVESGGGLVQAGGSLRLSCAAYGLTFPWNAMGWYRQSPGKERELVAAITSRGGNTYYADSVKGRFTISRDNAKNTVYLQMNSLKPEDTAVYYCAARQYWSYRRYDYWGQGTQVTVSS",
    "ASSAY_METRIC": "polyreactivity (PSR sort gate)",
    "REPORTED": "high polyreactivity"
  },
  {
    "SEQUENCE_STRING": "QVQLVESGGGLVQAGGSLRLSCAASGSIFGRYAMGWYRQAPGKERELVAAISWNGGSTYYADSVKGRFTISRDNAKNTVYLQMNILKPEDTAVYYCAADSGYSGYYYWGQGTQVTVSS",
    "ASSAY_METRIC": "polyreactivity (PSR sort gate)",
    "REPORTED": "high polyreactivity"
  },
  {
    "SEQUENCE_STRING": "QVQLVESGGGLVQAGGSLRLSCAASGFTFLSYTMGWYRQAPGKERELVASITASGTRTYYADSVKGRFTISRDNAKNTVYLQMNSLKPEDTAVYYCNRVGFDYWGQGTQVTVSS",
    "ASSAY_METRIC": "polyreactivity (PSR sort gate)",
    "REPORTED": "low polyreactivity"
  }
]

Here is another sequence to look at.
Qu. For the sequence `QVQLVESGGGLVQAGGSLRLSCAASGLTFYQYAMGWYRQATGKETELVAAITSAGITYADSVKGRFTISRDNAKNTVYLQMNSLKPEDTAVYYCAKDDYFSYGYVEFDYWGQGTQVTVSS` , give its reported polyreactivity (PSR sort gate).
Ans. low polyreactivity
